# credit: the Human Domainome abundance scans (Beltran et al. 2025)

B1: E3 ubiquitin-protein ligase NEDD4, residues 836 to 881; numbered along this chain, P46934 (parent)
chain: EIEQGFLPKGWEVRHAPNGRPFFIDHNTKTTTWEDPRLKIPAHLRG

Variants of: B1
test-name: abundance fitness (aPCA) (normalised: wild type 0, dead -1); higher = more abundant; growth selection in yeast, the domain comes from the species named
test-conditions: Homo sapiens
value-kind: abundance fitness
Lab note: write the figure by itself, no unit.

H26T = -0.357

Below: the item to evaluate.
I would be grateful if you could share the reported abundance fitness for T28Y . -0.548
